The entries below are paired with their reported %Inh.
tested on: TGFBR1; settings: concentration: 1 μM,replicates: in singlicate; n = 1;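 further: KINOMEscan kinase panel screen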

Compound: CN(c1ccc2c(c1)nc(NCc1ccc(F)cc1)n2C)c1ccnc(Nc2ccc(CS(C)(=O)=O)cc2)n1.Cl [GW813244]
Assay Metric: %Inh
Recorded Measurement: 0%
//
Compound: COc1cccc(C2=C(Nc3cccc(Cl)c3)C(=O)NC2=O)c1 [SB-341556]
Assay Metric: %Inh
Recorded Measurement: 12%

Reported %Inh ( O=C(NCC1CC1)c1ccc(-c2cc(C(=O)NC3CC3)ccc2F)cc1 [GW810445] ) = 27%

Reported %Inh ( C[C@@H](Oc1cc(-n2cnc3cc(-c4ccncc4)ccc32)sc1C(N)=O)c1ccccc1Cl [GSK479719] ) = 1%

Reported %Inh ( CCNCC(Cc1ccccc1)NC(=O)c1cc(Br)c(-c2ccnc3[nH]ccc23)s1.Cl.Cl (centres unmarked) [GSK1383280] ) = 0%

Reported %Inh ( `O=C(Nc1cccc(C(F)(F)F)c1)c1cccc(Oc2ccc3nccn3n2)c1` ) = 0%

Reported %Inh ( C[C@@H](Oc1cc(-n2cnc3ccc(-c4ccncc4)cc32)sc1C(N)=O)c1ccccc1Cl [GSK483724] ) = 0%

Reported %Inh ( COc1cccc(CNC(=O)NC2CCN(c3ccnc(Nc4cc(OC)c(OC)c(OC)c4)n3)C2)c1 (centres unmarked) [GSK1379765] ) = 24%

###

test system: MAST1; conditions: concentration: 1 μM,replicates: in singlicate; n = 1
Assay Metric: %Inh (%)
Note: unit % is implicit; provide only the numeric part.

Compound: Cn1ccc2ncnc(Oc3ccc(NC(=O)Nc4cccc(C(F)(F)F)c4)c(Cl)c3)c21
Test System: MAST1
Assay Metric: %Inh
Recorded Measurement: 0

Lab note: compound `Cn1ccc2ncnc(Oc3ccc(NC(=O)Nc4cncc(C(F)(F)F)c4)c(Cl)c3)c21` tested on MAST1; recorded %Inh was 6

Lab note: compound `Cn1ccc2ncnc(Oc3ccc(NC(=O)Nc4cnn(C(C)(C)C)c4)c(Cl)c3)c21` tested on MAST1; recorded %Inh was 0

Lab note: compound `CN(c1ccccc1CNc1nc(Nc2ccc3c(c2)CC(=O)N3)ncc1C(F)(F)F)S(C)(=O)=O` tested on MAST1; recorded %Inh was 0

Lab note: compound `CCn1c(-c2nonc2N)nc2cncc(CNC3CCNCC3)c21.Cl` tested on MAST1; recorded %Inh was 21

###

system: PAK2; settings: concentration: 1 μM,replicates: in singlicate; n = 1
Using %Inh as the sorting value, the categories are Low = under 8%, Mid = from 8% up to 20%, High = 20% and over

Molecule: CN(c1ccccc1CNc1nc(Nc2ccc3c(c2)CC(=O)N3)ncc1C(F)(F)F)S(C)(=O)=O
Label Class: Low
--
Molecule: C[C@@H](Oc1cc(-n2cnc3cc(-c4ccncc4)ccc32)sc1C(N)=O)c1ccccc1Cl [GSK479719]
Label Class: High
--
Molecule: COC(=O)c1cccc(NC(=O)NC2CCN(c3ccnc(Nc4cc(OC)c(OC)c(OC)c4)n3)C2)c1 (centres unmarked) [GSK1379767]
Label Class: Low
--
Molecule: CC(=O)Nc1ccc(-c2cc3ncnc(SCC(=O)O)c3s2)cc1
Label Class: Low
--
Molecule: CN1CCN(CCNc2nc3cc(Oc4ccc(NC(=O)Nc5cc(C(F)(F)F)ccc5F)cc4)ccc3[nH]2)CC1.Cl.Cl [GW768504]
Label Class: High

Qu. For this molecule, which bin applies? `Cc1ccc(C(=O)Nc2ccc(Oc3ccc4nc(NC(=O)C5CC5)cn4c3)c(F)c2)c(=O)n1-c1ccccc1`
Ans. Low

Qu. For this molecule, which bin applies? Cc1ccc(Nc2ccnc(Nc3ccc4c(c3)CS(=O)(=O)C4)n2)cc1O.Cl [GW579362]
Ans. High

Qu. For this molecule, which bin applies? COc1cccc(OC)c1C(=O)Nc1cccc(-c2nn3ccccc3c2-c2ccnc(Nc3cccc(F)c3)n2)c1 [GSK361065]
Ans. Mid
